Give Fluorescence activation multiple for every item shown.
test-target: SNAP protein tags (Homo sapiens, UniProt P16455, A127T/A154D/C150Q/C62A/E30R/G131K/G132T/G153L/K125A/K32I/L33F/M134L/N157G/Q115S/Q116H/R128A/R135S/S151G/S152D/S159E)
Sequence (P16455 1-182 E30R/K32I/L33F/C62A/Q115S/Q116H/K125A/A127T/R128A/G131K/G132T/M134L/R135S/C150Q/S151G/S152D/G153L/A154D/N157G/S159E): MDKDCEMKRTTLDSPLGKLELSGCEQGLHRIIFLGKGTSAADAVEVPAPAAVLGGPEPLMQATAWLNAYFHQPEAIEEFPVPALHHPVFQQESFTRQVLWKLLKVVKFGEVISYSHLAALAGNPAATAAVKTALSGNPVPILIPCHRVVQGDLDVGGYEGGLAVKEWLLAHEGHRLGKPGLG
measurement-description: Fluorescence activation of probe after incubation with corresponding protein tag (SNAP)
Assay type: biochemical
experimental-context: probe 5 μM, protein tag 10 μM, 37° C., 1 hr

Per the record, CN(CCOC(=O)NCc1ccc(COc2nc(N)nc3[nH]cnc23)cc1)c1ccc2c(c1)sc1cc(/C=C(/C#N)C(=O)OC(C)(C)C)sc12 [probe 63] has Fluorescence activation multiple of 486

Per the record, CN(CCOC(=O)NCc1ccc(COc2nc(N)nc3[nH]cnc23)cc1)c1ccc(-c2ccc(/C=C(\C#N)c3nc4ccccc4s3)s2)s1 [probe 79] has Fluorescence activation multiple of 419

Per the record, CN(CCOC(=O)NCc1ccc(COc2nc(N)nc3[nH]cnc23)cc1)c1ccc2cc(/C=C(\C#N)C(=O)O)sc2c1 [probe 111] has Fluorescence activation multiple of 681

Per the record, CN(CCOC(=O)NCc1ccc(COc2cc(Cl)nc(N)n2)cc1)c1ccc(/C=C(\C#N)c2nc3ccccc3s2)cc1 [probe 6] has Fluorescence activation multiple of 989

Per the record, CN(CCOC(=O)NCc1ccc(COc2nc(N)nc3[nH]cnc23)cc1)c1ccc(-c2ccc(/C=C(\C#N)C(=O)O)s2)s1 [probe 120] has Fluorescence activation multiple of 469

Per the record, N#C/C(=C\c1cc2c3c(c1)CCCN3CCC2)C(=O)NCc1ccc(COc2nc(N)nc3[nH]cnc23)cc1 [Reference Probe BG-CCVJ, reference compound] has Fluorescence activation multiple of 170
